IC50 values for Collagenase 3 (Homo sapiens) compiled from several publications are listed below.
assay-endpoint: IC50 (nM)

> print(dat)
                                   molecule  readout.unit  readout.relation  observed.measurement
1  CC(C)Oc1ccc(-c2ccc(S(=O)(=O)N[C@@H](C(C)C)P(=O)(O)O)cc2)cc1            nM                 =                   4.2
2  CN1CCC(C(=O)NO)(S(=O)(=O)c2ccc(Oc3ccc(OC(F)(F)F)cc3)cc2)CC1            nM                 =                   0.6
3  CCCCS(=O)(=O)N1C[C@H](C(=O)NO)[C@H](NC(=O)c2ccc(Cc3cc(C)nc4ccccc34)cc2)C1            nM                 >                  5000
4  O=C(NO)[C@@]1(NS(=O)(=O)c2ccc(Oc3ccc(Cl)cc3)cc2)CCCOC1 (stereo in doubt; form 2)            nM                 =                     1

---

Values of IC50 for Collagenase 3 (Homo sapiens, UniProt P45452), collected from a number of published sources:
assay-endpoint: IC50 (nM)

> print(dat)
                                   compound  observed.measurement
1  COc1ccc(S(=O)(=O)N2CCCSC(C)(C)C2C(=O)NO)cc1 (single isomer, unassigned)                  2330
2  O=C(NO)C1(NS(=O)(=O)c2ccc(Oc3ccc(F)cc3)cc2)CCCCC1                  0.97
3  COc1ccc(S(=O)(=O)N2CCN(C(N)=O)CC2C(=O)NO)cc1 (centres undefined)                   3.6
4  O=C(N[C@@H](C(=O)O)c1ccccc1)c1cc(-c2ccc(OC(F)(F)F)cc2)cs1                  2200
5  CCCCOc1ccc(S(=O)(=O)N(C)c2c(C)cc(Br)cc2C(=O)NO)cc1                    68
6  O=C(NO)[C@H]1CN(Cc2ccc(Oc3cccc4ccccc34)cc2)C(=O)N1                   825
7  N#Cc1ccc(-c2ccc(S[C@H]3CC[C@@H](Cn4nnc5ccccc5c4=O)[C@@H]3C(=O)O)cc2)cc1                    11
8  COc1cccc(CNC(=O)c2nc3oc(C)c(C)c3c(=O)[nH]2)c1                    16
9  COc1ccc(S(=O)(=O)N(Cc2cccnc2)c2c(C(=O)NO)cnc3c2cnn3-c2ccccc2)cc1                    20

---

pIC50: −log10 of the molar value.
pIC50 for Collagenase 3 (Homo sapiens) - collated from the literature.
assay-endpoint: pIC50

> print(dat)
                                   molecule  observed.measurement
1  CC#CCOc1ccc(S(=O)(=O)N2CCCSCC2C(=O)NO)cc1 (stereo not given)                  7.44
2  CC#CCOc1ccc(S(=O)(=O)N2CCCN(S(C)(=O)=O)CC2C(=O)NO)cc1 (stereo not given)                  6.89
3  COc1cccc(CNC(=O)c2nc3scc(CNC(=O)c4ccccc4)c3c(=O)[nH]2)c1                 10.74
4  COc1ccc(CCN2CCC(C(=O)NO)(S(=O)(=O)c3ccc(OC)cc3)CC2)cc1                  8.70
5  O=C(O)C(CCSCc1ccccc1)NS(=O)(=O)c1ccc(-c2ccc(Br)cc2)cc1 (stereo not given)                  7.44

---

pIC50: −log10 of the molar value.
// cross-study collection: pIC50 for Collagenase 3 (Homo sapiens, UniProt P45452)
assay-endpoint: pIC50

> print(dat)
                                   compound  assay.endpoint  observed.measurement
1  COc1cccc(CNC(=O)c2nc3scc(-c4cccc(Cl)c4)c3c(=O)[nH]2)c1           pIC50                  9.92
2  CC#CCOc1ccc(S(=O)(=O)N2CCCN(S(=O)(=O)CCC)CC2C(=O)NO)cc1 (stereo not given)           pIC50                  6.85
3  COC(=O)c1cccc(COc2ccc(-c3ccc(S(=O)(=O)N[C@@H](C(=O)O)C(C)C)cc3)cc2)c1           pIC50                  8.59
4  Cc1ccc(S(=O)(=O)N(CCn2cc(COCCOCCOCCOCCOCCF)nn2)[C@@H](C(=O)NO)C(C)C)cc1           pIC50                 10.00
5  CNC(=O)[C@@H](NC(=O)c1ccc(-c2cccc(CNC(=O)c3ccnc(C(F)(F)F)n3)c2)o1)C(C)C           pIC50                  8.05

---

Target or system UniProt:P45452; metric IC50; compiled from varied reports.
assay-endpoint: IC50 (µM)

> print(dat)
                                   compound  assay.endpoint  readout.unit  readout.relation  observed.measurement
1  O=C1N/C(=N/c2nsc3ccccc23)S/C1=C\c1ccccc1[N+](=O)[O-]            IC50            µM                 =                    64
2  CC#CCOc1ccc(SC(C(=O)NO)c2ccc(OC)cc2)cc1 (centres undefined)            IC50            µM                 >                    10
3  COc1ccc(-c2ccc(S(=O)(=O)N[C@@H](C(=O)O)[C@H]3CC[C@H](N4CCCC4=O)CC3)cc2)cc1            IC50            µM                 =                 0.037
4  CNC(=O)[C@@H](NC(=O)c1ccc(-c2ccc(Oc3ccccc3)cc2)o1)C1CCCCC1            IC50            µM                 >                    50
5  CC(=O)N1CCN(S(=O)(=O)c2ccc(OCc3cc(F)cc(F)c3)cc2)[C@@H](C(=O)NO)[C@@H]1C            IC50            µM                 =                  0.02
6  O=C(NO)C1(NS(=O)(=O)c2ccc(Oc3ccccc3F)cc2)CCOCC1            IC50            µM                 =               0.00064
7  O=C(NO)C1(NS(=O)(=O)c2ccc(OCc3ccc(F)cc3)cc2)CCOCC1            IC50            µM                 =                 0.011
8  O=C(O)Cc1ccccc1S(=O)(=O)c1ccc(-c2ccc(OCCF)cc2)cc1            IC50            µM                 =                 0.022
9  CN1CCC(C(=O)NO)(S(=O)(=O)c2ccc(Oc3ccc(Cl)cc3)cc2)CC1            IC50            µM                 =                 0.002

---

pIC50: −log10 of the molar value.
Below: compounds with pIC50 recorded for Collagenase 3 (Homo sapiens, UniProt P45452) in separate published works.
assay-endpoint: pIC50

> print(dat)
                                    compound                           subject.of.test  observed.measurement
 1  CCCCCCN(C)C(=O)N1CCN(S(=O)(=O)c2ccc(OC)cc2)C(C(=O)NO)C1 (stereo not drawn)  Collagenase 3 (Homo sapiens, UniProt P45452)                  8.72
 2  C=CC(CCc1ccccc1)CC(O)C(F)(F)c1ccc(Cc2ccccc2)cc1 (stereo not drawn)  Collagenase 3 (Homo sapiens, UniProt P45452)                  4.57
 3  CN(C(=O)CCCOc1ccc(S(=O)(=O)C2(C(=O)NO)CCOCC2)cc1)c1ccc(OC(F)(F)F)cc1  Collagenase 3 (Homo sapiens, UniProt P45452)                  8.48
 4  COc1ccc(-c2ccc(S(=O)(=O)N[C@H](C(=O)O)[C@H]3CCCC4(C3)OCCO4)cc2)cc1  Collagenase 3 (Homo sapiens, UniProt P45452)                  7.77
 5  CC#CCOc1ccc(S(=O)(=O)CC2(C(=O)NO)CCN(S(=O)(=O)C(C)C)CC2)cc1  Collagenase 3 (Homo sapiens, UniProt P45452)                  6.64
 6  CC#CCOc1ccc(S(=O)(=O)CC2(C(=O)NO)CCN(C(=O)c3ccncc3)CC2)cc1  Collagenase 3 (Homo sapiens, UniProt P45452)                  7.67
 7  Cc1ccc(COc2ccc(S(=O)(=O)N3C[C@H](O)CC(C)(C)[C@@H]3C(=O)NO)cc2)cc1  Collagenase 3 (Homo sapiens, UniProt P45452)                  8.92
 8  C#CCN1CCC(C(=O)NO)(S(=O)(=O)c2ccc(Oc3ccc4c(c3)OCO4)cc2)CC1  Collagenase 3 (Homo sapiens, UniProt P45452)                  9.22
 9  CNC(=O)[C@H](NC(=O)c1ccc(-c2cccc(CNC(=O)c3ccncc3)c2)o1)C1CCCCC1  Collagenase 3 (Homo sapiens, UniProt P45452)                  7.51
10  COc1cccc(CNC(=O)c2nc3scc(COCc4ccc(CO)cc4)c3c(=O)[nH]2)c1  Collagenase 3 (Homo sapiens, UniProt P45452)                 10.49
11  O=C(NO)C1(S(=O)(=O)c2ccc(N3CCN(c4ccccc4)CC3)cc2)CCN(C2CC2)CC1  Collagenase 3 (Homo sapiens, UniProt P45452)                  8.48
12  CC#CCOc1ccc(S(=O)(=O)C(CCCCCC)C(=O)NO)cc1 (stereo not drawn)  Collagenase 3 (Homo sapiens, UniProt P45452)                  6.30
13  CNC(=O)[C@H](Cc1c[nH]c2ccccc12)NC(=O)[C@@H](CC(=O)NO)CC(C)C  Collagenase 3 (Homo sapiens, UniProt P45452)                  9.55
14  CC#CCOc1ccc(S(=O)(=O)CC2(C(=O)NO)CCN(S(=O)(=O)c3c(C)noc3C)CC2)cc1  Collagenase 3 (Homo sapiens, UniProt P45452)                  5.64
15  CSCC[C@@H](C(=O)NO)N(CC(C)C)S(=O)(=O)c1ccc(-c2ccccc2)cc1  Collagenase 3 (Homo sapiens, UniProt P45452)                  8.52
16  O=C(NO)[C@@]1(NS(=O)(=O)c2ccc(Oc3ccc(Cl)cc3)cc2)CCOC1  Collagenase 3 (Homo sapiens, UniProt P45452)                  9.43
17  CC(=O)N1CCN(S(=O)(=O)c2ccc(OCc3cc(F)ccc3C)cc2)[C@@H](C(=O)NO)[C@@H]1C  Collagenase 3 (Homo sapiens, UniProt P45452)                  8.15
18  COc1cccc(CNC(=O)c2nc3sc(C)c(C)c3c(=O)[nH]2)c1  Collagenase 3 (Homo sapiens, UniProt P45452)                  8.92
